assay: Gelling of water-immiscible cosmetic liquids in 96 well glass micro-titre plate; format: physicochemical; parameters: key: gel; g4: gel after overnight (18 hrs) storage at 4° C.; g22: gel after overnight (18 hrs) storage at 22° C.; sg: soft gel; sg22: soft gel after overnight (18 hrs) storage at 22° C.; solution; *: the test at 4° C. was not carried out; conditions: 10% cellobiose ester in DC556

{"molecule": "CCCCCCCCC(=O)OCC1OC(OC2C(COC(=O)CCCCCCCC)OC(OC(=O)C3CCCCC3)C(OC(=O)CCCCCCCC)C2OC(=O)CCCCCCCC)C(OC(=O)CCCCCCCC)C(OC(=O)CCCCCCCC)C1OC(=O)CCCCCCCC (mixture of isomers)", "gelling of DC556": "gel"}
{"molecule": "CCCCCCCCCCCCCCCC(=O)OC1OC(COC(=O)CCCCCCCCC)C(OC2OC(COC(=O)CCCCCCCCC)C(OC(=O)CCCCCCCCC)C(OC(=O)CCCCCCCCC)C2OC(=O)CCCCCCCCC)C(OC(=O)CCCCCCCCC)C1OC(=O)CCCCCCCCC (mixture of isomers) [Ex 2.13]", "gelling of DC556": "gel"}
{"molecule": "CCCCCCCCCC(=O)OCC1OC(OC2C(COC(=O)CCCCCCCCC)OC(OC(=O)c3ccccc3)C(OC(=O)CCCCCCCCC)C2OC(=O)CCCCCCCCC)C(OC(=O)CCCCCCCCC)C(OC(=O)CCCCCCCCC)C1OC(=O)CCCCCCCCC (mixture of isomers) [Ex 2.1]", "gelling of DC556": "gel"}
{"molecule": "CCCCCCCCCC(=O)OCC1OC(OC2C(COC(=O)CCCCCCCCC)OC(OC(=O)C3CCCCC3)C(OC(=O)CCCCCCCCC)C2OC(=O)CCCCCCCCC)C(OC(=O)CCCCCCCCC)C(OC(=O)CCCCCCCCC)C1OC(=O)CCCCCCCCC (mixture of isomers)", "gelling of DC556": "gel"}
{"molecule": "CCCCCCCCC(=O)OCC1OC(OC2C(COC(=O)CCCCCCCC)OC(OC(C)=O)C(OC(=O)CCCCCCCC)C2OC(=O)CCCCCCCC)C(OC(=O)CCCCCCCC)C(OC(=O)CCCCCCCC)C1OC(=O)CCCCCCCC (mixture of isomers) [Ex 1.5]", "gelling of DC556": "gel"}
{"molecule": "CCCCCCCCC(=O)OCC1OC(OC2C(COC(=O)CCCCCCCC)OC(OC(=O)C3CCCC3)C(OC(=O)CCCCCCCC)C2OC(=O)CCCCCCCC)C(OC(=O)CCCCCCCC)C(OC(=O)CCCCCCCC)C1OC(=O)CCCCCCCC (mixture of isomers)", "gelling of DC556": "gel"}
{"molecule": "CCCCCCCCC(=O)OCC1OC(OC2C(COC(=O)CCCCCCCC)OC(OC(=O)CCC)C(OC(=O)CCCCCCCC)C2OC(=O)CCCCCCCC)C(OC(=O)CCCCCCCC)C(OC(=O)CCCCCCCC)C1OC(=O)CCCCCCCC (mixture of isomers)", "gelling of DC556": "gel"}
{"molecule": "CCCCCCCCCC(=O)OCC1OC(OC2C(COC(=O)CCCCCCCCC)OC(OC(=O)c3ccc(-c4ccccc4)cc3)C(OC(=O)CCCCCCCCC)C2OC(=O)CCCCCCCCC)C(OC(=O)CCCCCCCCC)C(OC(=O)CCCCCCCCC)C1OC(=O)CCCCCCCCC (mixture of isomers)", "gelling of DC556": "gel"}
